The values you see were collected from patent US20240158505A1.

# targetOrTestSystem: B7-H3 expressed on the cell membrane (MCF-7, RKO and RKO/B7H3 cell lines) (UniProt Q5ZPR3)
# Sequence (Q5ZPR3 29-534): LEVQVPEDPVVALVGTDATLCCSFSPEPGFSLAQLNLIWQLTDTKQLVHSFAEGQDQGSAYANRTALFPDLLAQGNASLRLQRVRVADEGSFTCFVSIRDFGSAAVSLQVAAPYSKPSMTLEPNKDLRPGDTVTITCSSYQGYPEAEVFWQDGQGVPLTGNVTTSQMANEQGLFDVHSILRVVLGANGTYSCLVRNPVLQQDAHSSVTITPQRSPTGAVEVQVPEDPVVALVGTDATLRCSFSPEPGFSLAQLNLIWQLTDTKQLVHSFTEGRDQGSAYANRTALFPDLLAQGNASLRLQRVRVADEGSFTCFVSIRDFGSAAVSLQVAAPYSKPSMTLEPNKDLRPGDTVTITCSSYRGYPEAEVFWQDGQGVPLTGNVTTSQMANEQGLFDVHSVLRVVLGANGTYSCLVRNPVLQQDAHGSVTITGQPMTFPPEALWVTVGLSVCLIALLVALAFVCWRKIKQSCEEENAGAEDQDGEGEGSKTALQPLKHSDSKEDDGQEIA
# protocolSummary: cell ELISA on fixed MCF-7 cells
Provide the recorded EC50 for the entries that follow.
Enter the number, and then the unit.

### Prompt What value of measured EC50 is listed for #6 antibody (antibody, V domains shown) VH: EVQLLESGGGLVQPGGSLRLSCAASGFTFSTYAISWVRQAPGKGLEWVSSIYYSGYTHYNPSLESRFTISRDNSKNTLYLQMNSLRAEDTAVYYCARGYSGWMDVWGQGTLVTVSS VL: QSVLTQPPSASGTPGQRVTISCGGNNIGSKSVHWYQQLPGTAPKLLIYDNNKRPSGVPNRFSGSKSGTSASLAISGLRSEDEADYYCAAWDDSLNVPVFGGGTKLTVL ?
### Response 0.234 nM

### Prompt Requested read-out: EC50. Entry: #9 antibody (antibody, V domains shown) VH: EVQLLESGGGLVQPGGSLRLSCAASGFTFSSYAMNWVRQAPGKGLEWVSTISGSGGQTYYADSVKGRFTISRDNSKNTLYLQMNSLRAEDTAVYYCARWRSIWAFDYWGQGTLVTVSS VL: QSVLTQPPSASGTPGQRVTISCSDNNIGSKSVHWYQQLPGTAPKLLIYDNNKRPSGVPDRFSGSKSGTSASLAISGLRSEDEADYYCGTWDDSLSGPVFGGGTKLTVL
### Response 0.322 nM

### Prompt Would you mind telling me what EC50 value was observed for #7 antibody (antibody, V domains shown) VH: EVQLLESGGGLVQPGGSLRLSCAASGFTFSNFWIGWVRQAPGKGLEWVSWINPPGSITSYADSVKGRFTISRDNSKDTLYLQMNSLRAEDTAVYYCAREVGDVLDYWGQGTLVTVSS VL: QSVLTQPPSASGTPGQRVTISCTGTSSDIGRYNYVSWYQQLPGTAPKLLIYRNTQRPSGVPDRFSGSKSGTSASLAISGLRSEDEADYYCGTWDSSLNAYVFGGGTKLTVL ?
### Response 1.01 nM

### Prompt Value lookup for EC50; key = #1 antibody (antibody, V domains shown) VH: EVQLLESGGGLVQPGGSLRLSCAASGFTFSSYAMSWVRQAPGKGLEWVSTITGSGGSTYYADSVKGRFTISRDNSKNTLYLQMNSLRAEDTAVYYCARYKSGAFDIWGQGTLVTVSS VL: EIVLTQSPGTLSLSPGERATLSCRASQGIGNYLGWYQQKPGQAPRLLIYTASSLQSGIPDRFSGSGSGTDFTLTISRLEPEDFAVYYCQQGYSTPSWTFGQGTKVEIK
### Response 0.605 nM

### Prompt What EC50 value was documented for this binder, #4 antibody (antibody, V domains shown) VH: EVQLLESGGGLVQPGGSLRLSCAASGFTFSSYGMHWVRQAPGKGLEWVSAISGSGTSIYYANSVKSRFTISRDNSKNTLYLQMNSLRAEDTAVYYCARGAGWFDYWGQGTLVTVSS VL: QSVLTQPPSASGTPGQRVTISCSGSTSNIGSNTVNWYQQLPGTAPKLLIYGKNIRPNGVPDRFSGSKSGTSASLAISGLHSEDEADYYCQSYDSSLSGWVFGGGTKLTVL ?
### Response 0.502 nM

### Prompt I have this binder here, #5 antibody (antibody, V domains shown) VH: EVQLLESGGGLVQPGGSLRLSCAASGFTFSTYAMSWVRQAPGKGLEWVSAISGSGGSTLYADSVKGRFTISRDNSKNTLYLQMNSLRAEDTAVYYCARGGSATWAFDLWGQGTLVTVSS VL: QSVLTQPPSASGTPGQRVTISCSGSSSNIGSNYVYWYQQLPGTAPKLLIYRNNQRPSGVPDRFSGSKSGTSASLAISGLRSEDEADYYCGTWDSSLSGVVFGGGTKLTVL , and I need its recorded EC50.
### Response 1.74 nM
